Please go through the items and note down their pKd.
- Tested on: T1, recombinant human PD-1 expressed with a C-terminal myc-myc-hexahistidine tag (human)
- T1 construct: also called hPD-1-MMH; human PD-1-MMH
- T1 sequence (chain, as listed by the source limits assumed): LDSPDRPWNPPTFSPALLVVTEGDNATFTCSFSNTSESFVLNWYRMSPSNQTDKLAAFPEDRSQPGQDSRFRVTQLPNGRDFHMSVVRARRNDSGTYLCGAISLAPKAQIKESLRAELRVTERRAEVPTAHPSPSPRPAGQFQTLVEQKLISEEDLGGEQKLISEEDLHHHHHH
- Protocol text: SPR (Biacore), mAb captured, hPD-1-MMH injected, 25 C;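 further: rate constants obtained by fitting sensorgrams to a 1:1 binding model, KD derived as kd/ka and half-life as ln2/(60·kd) in minutes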
Please treat pKd as minus the base-10 logarithm of the molar concentration.

## Task Need pKd, item H4H7795N2 (antibody, human IgG4 S228P, kappa, V domains shown) VH: EVQVVESGGGLVEPGRSLRLSCKASGFTFDDYAMHWVRQTPGKALEWVSGISWSGNNIGYADSVKGRFTISKDDAKNSLYLQMNSLRPEDTALYYCTKDISITGTLDAFDVWGQGTMVTVSS VL: DIQMTQSPISVSASVGDRVTITCRASQGISNWLAWYQQKPGIAPKLLIYSASSLQSGVPSRFRGSGSGTDFTLTIGSLQPEDFATYYCQQAHSFPLTFGGGTKVEIKR
## Result 7.63

## Task Which measured pKd value corresponds to H1M7789N (antibody, mouse IgG1, V domains shown, Human variable domains, mouse IgG1 Fc (H1M prefix)) VH: EVQLLESGGGLVQPGGSLRLSCSASGFTFSSYTMNWVRQAPGKGLEWVSGISDTGGNTYYTDSVKGRFTVSRDNSKNTLSLQMNSLRAEDTAVYYCAKDQGGSYPYYFHYWGQGSLVTVSS VL: DIQMTQSPSSLSASVGDRVTITCRASQSISSYLIWYQQKPGTAPKFLIYAASSLQSGVPSRFSGCGSGTDFTLTISSLQPEDFATYYCQQSYSTPPITFGQGTRLEIK ?
## Result 8.68

## Task Which pKd value belongs to H2aM7791N (antibody, mouse IgG2a, V domains shown, Human variable domains, mouse IgG2a Fc; also called H2M7791N) VH: QMQLQQWGAGLLKPSETLSLTCVVYGGSLNGYYWSWIRQSPGKGLEWIGEIDHSGSTNYNPSLKNRVTMSVDTSKIQFSLKLTSVTVADTAVYYCAREGLLPFDYWGQGTLVTVSS VL: EIVLTQSPGTLSLSPGERVTLSCRASQSVYSNYLAWYQQNPGQAPRLLIYAASNRATGIPDRFSGSGSGTDFTLTISRLEPEDFAVYYCHQYATSPWTFGQGTKVEIK ?
## Result 7.63

## Task Given H2aM7795N (antibody, mouse IgG2a, V domains shown, Human variable domains, mouse IgG2a Fc; also called H2M7795N) VH: EVQVVESGGGLVEPGRSLRLSCKASGFTFDDYAMHWVRQTPGKALEWVSGINWSGNNIGYADSVKGRFTISKDDAKNSLYLQMNSLRPEDTALYYCTKDISITGTLDAFDVWGQGTMVTVSS VL: DIQMTQSPISVSASVGDRVTITCRASQGISNWLAWYQQKPGIAPKLLIYSASSLQSGVPSRFRGSGSGTDFTLTIGSLQPEDFATYYCQQAHSFPLTFGGGTKVEIK , state its recorded pKd.
## Result 7.63

## Task Quick one: pKd for H2aM7798N (antibody, mouse IgG2a, V domains shown, Human variable domains, mouse IgG2a Fc; also called H2M7798N) VH: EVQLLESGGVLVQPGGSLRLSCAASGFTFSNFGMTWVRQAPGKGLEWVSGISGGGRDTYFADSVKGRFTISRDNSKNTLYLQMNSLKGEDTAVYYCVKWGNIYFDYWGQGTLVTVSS VL: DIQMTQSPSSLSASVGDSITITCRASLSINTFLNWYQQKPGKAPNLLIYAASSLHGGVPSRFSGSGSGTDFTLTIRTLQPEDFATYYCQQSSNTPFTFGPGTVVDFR ?
## Result 8.64
